System: MCF-7 and HEPG-2 cell lines
test_description: MTT assay, ranges over both cancer cell lines
Format: cell-based
experimental_setup: Homo sapiens; range spans both cell lines
pIC50: −log10 of the molar value.
assay_readout: pIC50

molecule_smiles: Cc1ccc(Cn2c(-n3ccnc3)cc(=O)n(C)c2=O)cc1
pIC50: 4.31 to 4.77

Proceeding to the next compound to report its pIC50.
Which pIC50 is listed for Cc1cccc(Cn2c(-n3ccnc3)cc(=O)n(C)c2=O)c1 ?
4.31 to 4.77

###

assay_readout: melting point

Below, each entry is followed by its recorded melting point result.
molecule_smiles: Cc1nccn1-c1cc(=O)n(C)c(=O)n1Cc1ccc(Br)cc1
result: 160 to 162 °C
//
molecule_smiles: Cc1ccc(Cn2c(-n3ccnc3)cc(=O)n(C)c2=O)cc1
result: 100 to 102 °C
//
molecule_smiles: Cc1cccc(Cn2c(-n3cncn3)cc(=O)n(C)c2=O)c1
result: 125 to 128 °C
//
molecule_smiles: Cn1c(=O)cc(-n2ccnc2)n(Cc2ccc(Br)cc2)c1=O
result: 110 to 113 °C

Proceeding to the next compound to report its melting point.
Which melting point is listed for Cc1ccc(Cn2c(-n3cncn3)cc(=O)n(C)c2=O)cc1 ?
116 to 118 °C
